Origin of values: patent US10028960B2

# Test system: IL-4 stimulated STAT6 phosphorylation in CD3+ T cells in human PBMCs
# experiment_summary: Cellular JAK potency assay: inhibition of IL-4 stimulated pSTAT6 in CD3+ T cells
# Assay type: cell-based
# experimental_setup: T-cell, cellular assay, Assay 4, read-out: IC50 for inhibition of IL-4
pIC50: −log10 of the molar value.
property_label: pIC50

Form: molecule = COc1cc(Nc2cc(CO)[nH]n2)nc(N(C)[C@@H]2C[C@H]3CCC[C@@H](C2)N3S(=O)(=O)N2CC(C#N)C2)n1 ; pIC50 = ≥ 7.30

* * *

# system_under_test: JAK1 (Homo sapiens (Human), UniProt P23458)
# Sequence (P23458 whole entry): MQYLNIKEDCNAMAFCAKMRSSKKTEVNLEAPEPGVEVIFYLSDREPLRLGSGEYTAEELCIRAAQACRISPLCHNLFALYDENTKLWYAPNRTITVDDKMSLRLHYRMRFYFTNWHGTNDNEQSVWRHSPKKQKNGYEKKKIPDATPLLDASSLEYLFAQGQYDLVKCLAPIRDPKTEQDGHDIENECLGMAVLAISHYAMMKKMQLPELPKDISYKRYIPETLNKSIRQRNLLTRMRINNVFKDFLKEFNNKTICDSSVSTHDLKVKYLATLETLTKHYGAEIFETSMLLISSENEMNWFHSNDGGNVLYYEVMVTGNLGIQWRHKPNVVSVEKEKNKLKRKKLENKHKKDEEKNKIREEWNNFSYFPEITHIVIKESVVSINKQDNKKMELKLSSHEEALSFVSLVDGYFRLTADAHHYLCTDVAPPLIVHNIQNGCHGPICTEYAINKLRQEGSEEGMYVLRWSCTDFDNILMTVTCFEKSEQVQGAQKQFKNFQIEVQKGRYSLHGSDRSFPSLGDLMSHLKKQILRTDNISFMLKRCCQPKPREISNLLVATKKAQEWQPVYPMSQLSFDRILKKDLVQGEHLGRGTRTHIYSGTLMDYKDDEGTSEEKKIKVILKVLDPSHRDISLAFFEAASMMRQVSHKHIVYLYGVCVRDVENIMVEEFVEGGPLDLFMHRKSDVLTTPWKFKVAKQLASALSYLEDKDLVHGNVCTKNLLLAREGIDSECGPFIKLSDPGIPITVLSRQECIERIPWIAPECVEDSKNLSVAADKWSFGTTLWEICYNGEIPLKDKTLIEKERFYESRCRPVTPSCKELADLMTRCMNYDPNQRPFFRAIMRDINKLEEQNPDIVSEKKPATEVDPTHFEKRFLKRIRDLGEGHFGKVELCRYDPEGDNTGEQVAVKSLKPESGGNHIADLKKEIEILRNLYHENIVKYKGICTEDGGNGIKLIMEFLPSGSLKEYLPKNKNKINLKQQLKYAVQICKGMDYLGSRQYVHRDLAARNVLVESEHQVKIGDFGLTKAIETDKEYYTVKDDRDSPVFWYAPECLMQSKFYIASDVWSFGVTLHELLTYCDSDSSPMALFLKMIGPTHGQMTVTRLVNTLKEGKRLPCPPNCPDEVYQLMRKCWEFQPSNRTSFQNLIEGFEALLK
# experiment_summary: LanthaScreen JAK biochemical assay, JAK1
# experimental_setup: read-out: JAK 1 (pKi) (converted)
Here, each record is paired with measured Ki data.

Please review the following examples before continuing.
- chemical_structure: "COc1cc(Nc2cc(CO)[nH]n2)nc(N[C@@H]2C[C@H]3CC[C@@H](C2)N3S(=O)(=O)N2CC(C#N)C2)n1"
  Ki: "0.1 to 1 nM"
- chemical_structure: "COCCS(=O)(=O)N1[C@@H]2CCC[C@H]1C[C@H](N(C)c1nc(Nc3cc(CO)[nH]n3)cc(OC)n1)C2"
  Ki: "0.1 to 1 nM"
- chemical_structure: "COc1cc(Nc2cc(CO)[nH]n2)nc(N(C)[C@@H]2C[C@H]3CCC[C@@H](C2)N3C(=O)C(F)F)n1"
  Ki: "0.1 to 1 nM"
- chemical_structure: "COc1cc(Nc2cc(CO)[nH]n2)nc(N[C@@H]2C[C@H]3CC[C@@H](C2)N3S(=O)(=O)c2ccccc2)n1"
  Ki: "10 to 31.6 nM"

Next molecule, Ki to be filled in.
Form: molecule = COc1cc(Nc2cc(CO)[nH]n2)nc(N(C)[C@@H]2C[C@H]3CCC[C@@H](C2)N3S(C)(=O)=O)n1 ; Ki = 0.1 to 1 nM
